FYI, the data here is from patent US20250145594A1.

Tested on: ATF4 luciferase reporter in HEK293T cells
test_details: ATF4-Luc assay (in vitro model of VWMD)
Type: cell-based, human
experimental_context: Homo sapiens, HEK-293T, 7 h, HEK293T cells carrying the ATF4 luciferase reporter, 1 μg/mL tunicamycin, One Glo luminescence
pEC50: −log10 of the molar value.
Recorded pEC50 values for a group of molecules are listed next.

Look over these answered cases.
>>> df
                                        mol        result
0  COCCOc1cnn(C23CC(NC(=O)[C@H]4C[C@@H](O)c5cc(Cl)ccc5O4)(C2)C3)c1  6.30 to 6.60
1  O=C(NC12CC(n3cc4cc(OC(F)(F)F)ccc4n3)(C1)C2)[C@H]1C[C@@H](O)c2cc(Cl)ccc2O1  7.30 to 8.00
2  O=C(COC12CC(NC(=O)[C@H]3C[C@@H](O)c4cc(Cl)ccc4O3)(C1)C2)N[C@H]1C[C@@H](OC(F)(F)F)C1  7.30 to 8.00
3  COc1ncc(-c2cnn(C34CC(NC(=O)[C@H]5C[C@@H](O)c6cc(C(F)(F)F)c(F)cc6O5)(C3)C4)c2)cn1        > 8.00
4  O=C(NC12CC(n3cc(-c4ccc(C(F)(F)F)cn4)cn3)(C1)C2)[C@@H]1C[C@@H](O)c2cc(Cl)ccc2O1  7.30 to 8.00

Which pEC50 is reported for this molecule? O=C(NC12CC(n3cc(-c4ccc(OC(F)(F)F)cn4)cn3)(C1)C2)[C@H]1C[C@@H](O)c2cc(Cl)c(F)cc2O1
> 8.00

Which pEC50 is reported for this molecule? O=C(NC12CC(n3cc([C@H]4C[C@@H](OC(F)(F)F)C4)nn3)(C1)C2)[C@H]1C[C@@H](O)c2cc(Cl)ccc2O1
> 8.00

Which pEC50 is reported for this molecule? O=C(NC12CC(n3cc(C(=O)N4CC[C@H](OC(F)(F)F)C4)cn3)(C1)C2)[C@H]1C[C@H](O)c2cc(Cl)ccc2O1
> 8.00

Which pEC50 is reported for this molecule? O=C(CO[C@H]1C[C@@H](OC(F)(F)F)C1)NC12CC(NC(=O)[C@H]3C[C@H](O)c4cc(C(F)(F)F)c(F)cc4O3)(C1)C2
> 8.00

Which pEC50 is reported for this molecule? O=C(NC12CC(n3cc(-c4cnc(C(F)(F)F)c(F)c4)cn3)(C1)C2)[C@H]1C[C@@H](O)c2cc(Cl)ccc2O1
> 8.00

Which pEC50 is reported for this molecule? O=C(N[C@H]1CC[C@H](n2cc(OCCOC(F)(F)F)cn2)CC1)[C@H]1C[C@@H](O)c2cc(Cl)ccc2O1
> 8.00

Which pEC50 is reported for this molecule? O=C(NC12CC(n3cc(-c4ccc(C(F)(F)F)cn4)cn3)(C1)C2)[C@H]1C[C@@H](O)c2cc(C(F)(F)F)ccc2O1
> 8.00

----------
Test system: ATF4 luciferase reporter in HEK293T cells
test_details: ATF4-Luc assay (in vitro model of VWMD)
Type: cell-based, human
experimental_context: Homo sapiens, HEK-293T, 7 h, HEK293T cells carrying the ATF4 luciferase reporter, 1 μg/mL tunicamycin, One Glo luminescence
Recorded EC50 values for a group of compounds are listed next.

Look over these answered cases.
In [3]: df
Out[3]:
                                   compound  value_type        result
0  O=C(NC12CC(c3ccc(C(=O)N4CC(OCC(F)(F)F)C4)nc3)(C1)C2)[C@H]1C[C@@H](O)c2cc(Cl)ccc2O1 [Compound 533]        EC50       < 10 nM
1  O=C(NC12CCC(n3cc(-c4ccc(C(F)(F)F)cn4)cn3)(C1)C2)[C@H]1C[C@@H](O)c2cc(Cl)c(F)cc2O1 [Compound 627]        EC50       < 10 nM
2  O=C(NC12CC(n3cc(C(=O)N4CC[C@H](OC(F)(F)F)C4)cn3)(C1)C2)[C@@H]1C[C@@H](O)c2cc(Cl)ccc2O1 [Compound 324]        EC50       < 10 nM
3  O=C(COc1ccc(Cl)c(F)c1)NC12CC(c3ccc(C(=O)N4CC(OCC(F)(F)F)C4)nc3)(C1)C2 [Compound 601]        EC50   10 to 50 nM
4  COc1ncc(-c2cnn(C34CC(NC(=O)[C@@H]5C[C@@H](O)c6cc(Cl)ccc6O5)(C3)C4)c2)cn1 [Compound 396]        EC50  50 to 250 nM
5  O=C(CO[C@H]1C[C@@H](OC(F)(F)F)C1)NC12CC(NC(=O)[C@H]3C[C@@H](O)c4cc(Cl)ccc4O3)(C1)C2 (racemic) [Compound 114]        EC50       < 10 nM
6  Cn1nc(C23CC(NC(=O)COc4ccc(Cl)c(F)c4)(C2)C3)cc1O[C@H]1C[C@@H](OC(F)(F)F)C1 [Compound 345]        EC50  50 to 250 nM
7  O=C(NC12CC(c3ccnc(OCCCOC(F)(F)F)c3)(C1)C2)[C@H]1C[C@@H](O)c2cc(Cl)ccc2O1 [Compound 428]        EC50       < 10 nM
8  O=C(COc1ccc(Cl)c(F)c1)NC12CC(c3ccc(OCCOC(F)(F)F)nc3)(C1)C2 [Compound 456]        EC50  50 to 250 nM
9  C[C@H](COC(F)(F)F)Oc1cnn(C23CC(NC(=O)[C@H]4C[C@@H](O)c5cc(Cl)ccc5O4)(C2)C3)c1 [Compound 440]        EC50   10 to 50 nM

Which EC50 is reported for this compound? COc1ccc2nn(C34CC(NC(=O)[C@H]5C[C@@H](O)c6cc(Cl)c(F)cc6O5)(C3)C4)cc2c1 [Compound 505]
< 10 nM

Which EC50 is reported for this compound? O=C(NC12CC(n3cc(CN4CC[C@H](OC(F)(F)F)C4)cn3)(C1)C2)[C@H]1C[C@@H](O)c2cc(Cl)ccc2O1 [Compound 339]
250 to 500 nM

Which EC50 is reported for this compound? O=C(NC12CC(n3cc(N4CC[C@@H](OC(F)(F)F)C4)cn3)(C1)C2)[C@H]1C[C@@H](O)c2cc(Cl)c(F)cc2O1 [Compound 389]
< 10 nM

Which EC50 is reported for this compound? O=C(NC12CC(n3cc(-c4ccc(Cl)c(F)c4)nn3)(C1)C2)[C@H]1C[C@@H](O)c2cc(Cl)ccc2O1 [Compound 358]
< 10 nM

----------
Recorded pEC50 values for a group of compounds are listed next.
Tested on: ATF4 luciferase reporter in HEK293T cells
test_details: ATF4-Luc assay (in vitro model of VWMD)
Format: cell-based, human
experimental_context: Homo sapiens, HEK-293T, 7 h, HEK293T cells carrying the ATF4 luciferase reporter, 1 μg/mL tunicamycin, One Glo luminescence
pEC50: −log10 of the molar value.

Identify the measured pEC50 of O=C(NC12CC(n3cc(OCCCOC(F)(F)F)cn3)(C1)C2)[C@H]1C[C@@H](O)c2cc(C(F)(F)F)ccc2O1 for ATF4 luciferase reporter in HEK293T cells.
> 8.00

Identify the measured pEC50 of O=C(CO[C@H]1C[C@@H](OC(F)(F)F)C1)NC12CCC(NC(=O)[C@H]3C[C@@H](O)c4cc(Cl)c(F)cc4O3)(CC1)[C@@H](O)C2 for ATF4 luciferase reporter in HEK293T cells.
> 8.00

Identify the measured pEC50 of O=C(NC12CC(c3cn([C@H]4C[C@@H](OC(F)(F)F)C4)nn3)(C1)C2)[C@H]1C[C@@H](O)c2cc(Cl)ccc2O1 for ATF4 luciferase reporter in HEK293T cells.
7.30 to 8.00

Identify the measured pEC50 of O=C(NC12CC(n3cc(OCCOC(F)F)cn3)(C1)C2)[C@H]1C[C@@H](O)c2cc(Cl)ccc2O1 for ATF4 luciferase reporter in HEK293T cells.
7.30 to 8.00

Identify the measured pEC50 of O=C(NC12CC(n3cc(OCCOC(F)(F)F)cn3)(C1)C2)[C@@H]1C[C@@H](O)c2cc(Cl)ccc2O1 for ATF4 luciferase reporter in HEK293T cells.
7.30 to 8.00

Identify the measured pEC50 of O=C(NC12CC(n3cc(OCCOC(F)(F)F)cn3)(C1)C2)[C@@H]1C[C@@H](O)c2cc(Cl)c(F)cc2O1 for ATF4 luciferase reporter in HEK293T cells.
> 8.00

Identify the measured pEC50 of O=C(N[C@H]1C[C@H]2O[C@@H]1C[C@@H]2c1nnc([C@H]2C[C@@H](OC(F)(F)F)C2)o1)[C@@H]1C[C@H](O)c2cc(Cl)ccc2O1 (mixture of isomers) for ATF4 luciferase reporter in HEK293T cells.
7.30 to 8.00

Identify the measured pEC50 of O=C(NC12CC(n3cc(C(=O)N4CCC(OC(F)(F)F)CC4)cn3)(C1)C2)[C@H]1C[C@@H](O)c2cc(Cl)ccc2O1 for ATF4 luciferase reporter in HEK293T cells.
6.60 to 7.30
